subject of test: μ-opioid receptor (Homo sapiens)
Construct: expressed in transfected cells; host or cells: HEK-293
Sequence (P35372 whole entry, species assumed): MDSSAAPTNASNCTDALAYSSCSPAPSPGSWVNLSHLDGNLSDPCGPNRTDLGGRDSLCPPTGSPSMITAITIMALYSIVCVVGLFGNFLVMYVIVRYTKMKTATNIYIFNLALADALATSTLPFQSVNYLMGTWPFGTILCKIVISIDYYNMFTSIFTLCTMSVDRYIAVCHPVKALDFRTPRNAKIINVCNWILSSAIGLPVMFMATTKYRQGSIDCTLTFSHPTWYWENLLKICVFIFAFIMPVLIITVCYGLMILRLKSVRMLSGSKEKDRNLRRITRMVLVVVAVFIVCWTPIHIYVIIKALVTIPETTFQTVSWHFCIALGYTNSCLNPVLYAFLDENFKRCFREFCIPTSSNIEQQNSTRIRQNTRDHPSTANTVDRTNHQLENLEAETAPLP
assay method text: μ-opioid receptor [35S]GTPγS functional assay
Assay type: biochemical
test settings: maximal effect relative to DAMGO, HEK-293 cells
Please respond with 1 when measured Emax is strictly beneath 60%, and with 0 in all other cases.

{"given smiles": "CN1CC[C@]23CCN(C)[C@H](Cc4ccc(O)cc42)[C@@H]3C1", "discrete label": 0}
{"given smiles": "CN1CC[C@]23CCNC[C@H]2[C@H]1Cc1ccc(O)cc13", "discrete label": 1}
{"given smiles": "COc1ccc(CN2CC[C@]34CCN(C)[C@H](Cc5ccc(OC)cc53)[C@@H]4C2)cc1", "discrete label": 1}
{"given smiles": "CN1CC[C@]23CCN(C(=O)Nc4ccccc4)C[C@H]2[C@H]1Cc1ccc(O)cc13", "discrete label": 1}

query: State whether 60% exceeds Emax recorded for `CC(=O)N1CC[C@]23CCN(C)[C@H](Cc4ccc(O)cc42)[C@@H]3C1` .
result: 0

query: # TODO verify Emax < 60% strictly for this molecule: `CN1CC[C@]23CCN(Cc4ccc(O)cc4)C[C@H]2[C@H]1Cc1ccc(O)cc13`
result: 1

query: Hello, I'm reviewing records and need to know if Emax of `CN1CC[C@]23CCN(C(=O)C4CC4)C[C@H]2[C@H]1Cc1ccc(O)cc13` is below 60%. Could you check?
result: 1

query: Consider the molecule `COc1ccc2c(c1)[C@]13CCN(C)[C@H](C2)[C@@H]1CNC(=O)C3` . Is its Emax strictly less than 60%?
result: 1
